- TARGET_SYSTEM: Jak2 (UniProt O60674)
- Sequence (O60674 whole entry, looked up): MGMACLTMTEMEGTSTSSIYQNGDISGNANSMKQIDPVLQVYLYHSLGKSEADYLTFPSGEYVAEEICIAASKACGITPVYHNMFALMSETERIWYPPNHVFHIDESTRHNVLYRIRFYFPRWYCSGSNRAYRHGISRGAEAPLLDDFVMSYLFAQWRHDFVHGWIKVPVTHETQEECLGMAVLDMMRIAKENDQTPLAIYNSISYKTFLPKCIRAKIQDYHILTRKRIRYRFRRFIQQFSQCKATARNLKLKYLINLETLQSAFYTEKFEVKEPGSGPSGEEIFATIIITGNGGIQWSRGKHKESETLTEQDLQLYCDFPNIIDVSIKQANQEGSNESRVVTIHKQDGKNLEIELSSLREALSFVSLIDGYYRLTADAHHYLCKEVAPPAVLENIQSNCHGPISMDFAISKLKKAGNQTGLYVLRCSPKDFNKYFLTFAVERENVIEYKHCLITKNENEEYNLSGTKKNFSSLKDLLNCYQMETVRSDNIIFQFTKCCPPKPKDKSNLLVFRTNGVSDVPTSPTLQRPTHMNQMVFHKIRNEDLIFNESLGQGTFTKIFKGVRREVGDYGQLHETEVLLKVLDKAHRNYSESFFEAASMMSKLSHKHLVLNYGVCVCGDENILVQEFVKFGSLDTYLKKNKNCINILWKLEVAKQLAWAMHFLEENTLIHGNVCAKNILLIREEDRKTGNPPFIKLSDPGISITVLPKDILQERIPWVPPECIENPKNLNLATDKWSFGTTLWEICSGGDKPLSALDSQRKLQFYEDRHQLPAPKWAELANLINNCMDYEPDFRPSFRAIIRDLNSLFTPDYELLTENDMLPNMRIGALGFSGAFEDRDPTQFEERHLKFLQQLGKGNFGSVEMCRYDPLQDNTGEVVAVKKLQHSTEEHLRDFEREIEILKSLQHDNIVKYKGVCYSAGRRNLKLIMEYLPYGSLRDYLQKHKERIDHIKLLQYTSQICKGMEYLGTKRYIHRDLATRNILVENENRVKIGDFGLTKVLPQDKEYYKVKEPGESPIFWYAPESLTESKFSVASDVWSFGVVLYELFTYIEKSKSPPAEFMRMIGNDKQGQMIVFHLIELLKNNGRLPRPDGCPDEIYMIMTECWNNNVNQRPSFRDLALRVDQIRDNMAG
- MEASUREMENT_DESCRIPTION: phosphorylation enrichment, bacterial display (enrichment ratio); higher = better substrate or ligand; peptides without Tyr show the background;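 further: 11-residue human phosphosite peptides and single-mutation variants displayed on the E. coli surface, counted by deep sequencing, each peptide's frequency after selection divided by its frequency in the unselected input library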;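 further: frequency after pTyr selection over input frequency; kinase dosed for 20-30% of maximal phosphorylation in three min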
Give rule met when the value for phosphorylation enrichment is at least 0.8. Give rule not met when it is less.

Check out these entries, answers already filled in.
>>> label_value("SSNLFYRCLTA [CNGA3_Y169_W171C_YF]")
"rule met"
>>> label_value("IGEGTYRQVYK [CDK13_Y716_G717R]")
"rule not met"
>>> label_value("LSIDRYHAIVY [NPSR1_Y147]")
"rule met"
>>> label_value("NGRQCYSCRGN [PLAUR_Y217_K220R]")
"rule not met"
>>> label_value("VGGRIYTDDGL [PKLR_Y218_I219T]")
"rule not met"
>>> label_value("SDGHEYIFVDP [PDGFRB_Y579_YF]")
"rule met"

Does NHYKRYNLCAE [PTEN_Y68_I67R] have a reported phosphorylation enrichment of at least 0.8? rule not met

# bool: phosphorylation enrichment of LTSKPYAFTAR [NDUFS1_Y236] >= 0.8 rule not met

Hi, just wondering whether FEPWVYSLSYE [PRKDC_Y647_F649L] shows phosphorylation enrichment of 0.8 or higher. rule met

In plain terms: is recorded phosphorylation enrichment at least 0.8 for GHLFAYNWISI [BEST1_Y227_D228N_YF] ? rule met

Would you say LVSCAYQMARG [FGFR1_Y605_V607M] shows phosphorylation enrichment at minimum 0.8? rule met

Assess whether reported phosphorylation enrichment for RGDTVYTVNCM [KBTBD13_Y404_R408C] sits at 0.8 or higher. rule met

Entry FADIAYNFRRG [PAH_Y166_H170R_YF] : is its phosphorylation enrichment no less than 0.8? rule not met

* * *

- TARGET_SYSTEM: EPHB2 (UniProt P29323)
- Sequence (P29323 whole entry, looked up): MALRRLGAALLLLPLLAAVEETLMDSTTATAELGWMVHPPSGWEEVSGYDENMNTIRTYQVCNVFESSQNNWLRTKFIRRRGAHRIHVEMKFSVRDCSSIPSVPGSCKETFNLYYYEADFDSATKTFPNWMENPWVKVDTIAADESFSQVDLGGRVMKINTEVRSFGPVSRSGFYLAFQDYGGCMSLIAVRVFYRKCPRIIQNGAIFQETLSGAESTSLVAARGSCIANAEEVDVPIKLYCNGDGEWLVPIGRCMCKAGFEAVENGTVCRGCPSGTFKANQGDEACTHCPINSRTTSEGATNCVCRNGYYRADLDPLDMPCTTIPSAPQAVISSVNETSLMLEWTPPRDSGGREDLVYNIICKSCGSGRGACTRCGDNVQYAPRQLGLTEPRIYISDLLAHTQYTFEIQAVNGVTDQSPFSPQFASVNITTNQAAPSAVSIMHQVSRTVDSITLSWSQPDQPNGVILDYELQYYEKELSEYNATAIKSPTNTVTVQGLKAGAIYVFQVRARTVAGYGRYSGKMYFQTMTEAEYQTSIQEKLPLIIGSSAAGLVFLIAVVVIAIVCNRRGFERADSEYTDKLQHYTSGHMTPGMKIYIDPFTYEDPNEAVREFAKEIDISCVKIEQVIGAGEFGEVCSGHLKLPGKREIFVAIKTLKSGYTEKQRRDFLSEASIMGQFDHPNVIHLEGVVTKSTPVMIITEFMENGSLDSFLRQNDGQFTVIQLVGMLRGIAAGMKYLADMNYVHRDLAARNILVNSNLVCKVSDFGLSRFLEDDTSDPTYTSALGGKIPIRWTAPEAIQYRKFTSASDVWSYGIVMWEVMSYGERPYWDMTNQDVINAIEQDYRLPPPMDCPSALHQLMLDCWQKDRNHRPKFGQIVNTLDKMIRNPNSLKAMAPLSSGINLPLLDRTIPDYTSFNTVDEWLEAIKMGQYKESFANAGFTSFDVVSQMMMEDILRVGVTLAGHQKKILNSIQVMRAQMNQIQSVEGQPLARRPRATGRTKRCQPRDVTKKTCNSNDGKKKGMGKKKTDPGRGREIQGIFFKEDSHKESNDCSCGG
- MEASUREMENT_DESCRIPTION: phosphorylation enrichment, bacterial display (enrichment ratio); higher = better substrate or ligand; peptides without Tyr show the background
RECORDED_METRIC: phosphorylation enrichment
Keep the answer to the number alone.

>>> endpoint_value("EELLRYAIVTP [POC5_Y37_H36R]")
0.637
>>> endpoint_value("IIRRLYLKWHP [SACS_Y4333]")
0.543
>>> endpoint_value("EFTPLYPMLFG [SCLY_Y280]")
0.695
>>> endpoint_value("RPFRPYIIRGM [LRP5_Y1531_YF]")
0.709

Any idea what phosphorylation enrichment was measured for SEPDLYCDPRG [PKP1_Y160] ? 3.01

Dear colleague, I am looking for the recorded phosphorylation enrichment of the following sequence: WLFFRYLPIGC [ATP2A2_Y836_A838P] 0.531

Would you mind telling me what phosphorylation enrichment value was observed for LTVVIYVLIGR [EPHA3_Y561] ? 1.77

Need phosphorylation enrichment, item RIVEIYTRRLQ [GCH1_Y175_S176T] 0.462

I have this sequence here, ESMLRYEVYGG [STOX1_Y607] , and I need its recorded phosphorylation enrichment. 0.685

* * *

- TARGET_SYSTEM: FGFR1 (UniProt P11362)
- Sequence (P11362 whole entry, looked up): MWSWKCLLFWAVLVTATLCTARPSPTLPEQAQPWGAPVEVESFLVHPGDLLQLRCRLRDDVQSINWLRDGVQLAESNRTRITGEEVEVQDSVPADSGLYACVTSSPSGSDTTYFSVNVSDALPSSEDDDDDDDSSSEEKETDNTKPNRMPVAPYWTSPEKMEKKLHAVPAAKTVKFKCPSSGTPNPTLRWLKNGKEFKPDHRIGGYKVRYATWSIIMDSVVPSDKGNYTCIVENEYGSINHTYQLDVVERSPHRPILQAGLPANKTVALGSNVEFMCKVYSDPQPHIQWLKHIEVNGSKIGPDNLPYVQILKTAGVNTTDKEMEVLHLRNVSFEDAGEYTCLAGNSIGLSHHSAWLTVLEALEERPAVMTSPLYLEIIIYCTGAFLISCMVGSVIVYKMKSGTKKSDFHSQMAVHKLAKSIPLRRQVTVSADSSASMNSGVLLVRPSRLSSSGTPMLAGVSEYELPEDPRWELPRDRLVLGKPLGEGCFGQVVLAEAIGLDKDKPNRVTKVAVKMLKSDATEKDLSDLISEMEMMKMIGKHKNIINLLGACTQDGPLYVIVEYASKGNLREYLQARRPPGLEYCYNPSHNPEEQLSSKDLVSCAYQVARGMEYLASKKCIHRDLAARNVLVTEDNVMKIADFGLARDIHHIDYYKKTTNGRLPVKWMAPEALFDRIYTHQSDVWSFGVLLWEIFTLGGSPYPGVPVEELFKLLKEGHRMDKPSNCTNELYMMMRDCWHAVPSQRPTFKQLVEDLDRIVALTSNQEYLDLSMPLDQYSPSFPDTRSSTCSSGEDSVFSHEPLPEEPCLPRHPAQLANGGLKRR
- MEASUREMENT_DESCRIPTION: phosphorylation enrichment, bacterial display (enrichment ratio); higher = better substrate or ligand; peptides without Tyr show the background
The label depends only on phosphorylation enrichment: criterion met if it is at least 0.6, criterion not met if it is smaller.

Check this sequence for phosphorylation enrichment at or above 0.6: EGGFAYVPLKD [PRIM2_Y208_D204G] criterion not met

Is reported phosphorylation enrichment greater than or equal to 0.6 here: NQLNDYIFSFD [RARS1_Y516_R512Q] criterion met

Determine whether measured phosphorylation enrichment meets or exceeds 0.6 for EYLHKYKGFKI [SYNE1_Y6953_Q6951H] criterion not met

Please tell me: is the sequence VNRSGYTLIRK [ATP6V0A2_Y688] at or over 0.6 in terms of phosphorylation enrichment? criterion not met

Please indicate if the recorded phosphorylation enrichment for LLVVLNKYRCY [PSEN1_Y154_Y154N] meets or exceeds 0.6. criterion met

Check the entry RRETPYGGGGG [FUS_Y526_R524T] : does phosphorylation enrichment equal or exceed 0.6? criterion met

API: above_or_equal(metric=phosphorylation enrichment, cutoff=0.6) for item ARKWGYTVKGI [OAT_Y158] criterion not met

Please tell me: is the sequence SLQSEYVHYGG [CDC14A_Y591] at or over 0.6 in terms of phosphorylation enrichment? criterion met

Could you verify whether the entry PVQAAYQQVVA [HBB_Y131_K133Q] shows phosphorylation enrichment of no less than 0.6? criterion met

Reported phosphorylation enrichment at or above 0.6? TQRPFYKGGGG [TYROBP_Y112_YF] criterion not met

In plain terms: is recorded phosphorylation enrichment at least 0.6 for GRQGIYKENER [GPR143_Y231_T232K] ? criterion not met

# bool: phosphorylation enrichment of SVTCTYSPALN [TP53_Y126] >= 0.6 criterion not met

Dear colleague, could you confirm whether SSNLFYRCLTA [CNGA3_Y169_W171C_YF] has phosphorylation enrichment at or above 0.6? criterion not met

Does the reported phosphorylation enrichment for LKALHYMAQTS [SACS_Y3367_V3369A] fall at or above the 0.6 mark? criterion met

Quick check: does QKMADYSNKLF [PDPR_Y104_YF] have phosphorylation enrichment greater than or equal to 0.6? criterion met

Does phosphorylation enrichment meet or surpass 0.6 for SMAKYYASGIA [ACADSB_Y373_E376G] ? criterion not met

Could you tell me if the measured phosphorylation enrichment of VDSTEYEVASQ [SLC7A7_Y7] reaches 0.6 or more? criterion not met

Quick check, phosphorylation enrichment >= 0.6? CTTVHYNYMCN [TP53_Y234_I232V] criterion not met

The measured values listed here are drawn from the supplement of paper PMC10065799.
